# assayedTarget: VEGFR2 (Homo sapiens, UniProt P35968)
# Construct: purchased Reaction Biology Corporation
# Sequence (P35968 20-1356): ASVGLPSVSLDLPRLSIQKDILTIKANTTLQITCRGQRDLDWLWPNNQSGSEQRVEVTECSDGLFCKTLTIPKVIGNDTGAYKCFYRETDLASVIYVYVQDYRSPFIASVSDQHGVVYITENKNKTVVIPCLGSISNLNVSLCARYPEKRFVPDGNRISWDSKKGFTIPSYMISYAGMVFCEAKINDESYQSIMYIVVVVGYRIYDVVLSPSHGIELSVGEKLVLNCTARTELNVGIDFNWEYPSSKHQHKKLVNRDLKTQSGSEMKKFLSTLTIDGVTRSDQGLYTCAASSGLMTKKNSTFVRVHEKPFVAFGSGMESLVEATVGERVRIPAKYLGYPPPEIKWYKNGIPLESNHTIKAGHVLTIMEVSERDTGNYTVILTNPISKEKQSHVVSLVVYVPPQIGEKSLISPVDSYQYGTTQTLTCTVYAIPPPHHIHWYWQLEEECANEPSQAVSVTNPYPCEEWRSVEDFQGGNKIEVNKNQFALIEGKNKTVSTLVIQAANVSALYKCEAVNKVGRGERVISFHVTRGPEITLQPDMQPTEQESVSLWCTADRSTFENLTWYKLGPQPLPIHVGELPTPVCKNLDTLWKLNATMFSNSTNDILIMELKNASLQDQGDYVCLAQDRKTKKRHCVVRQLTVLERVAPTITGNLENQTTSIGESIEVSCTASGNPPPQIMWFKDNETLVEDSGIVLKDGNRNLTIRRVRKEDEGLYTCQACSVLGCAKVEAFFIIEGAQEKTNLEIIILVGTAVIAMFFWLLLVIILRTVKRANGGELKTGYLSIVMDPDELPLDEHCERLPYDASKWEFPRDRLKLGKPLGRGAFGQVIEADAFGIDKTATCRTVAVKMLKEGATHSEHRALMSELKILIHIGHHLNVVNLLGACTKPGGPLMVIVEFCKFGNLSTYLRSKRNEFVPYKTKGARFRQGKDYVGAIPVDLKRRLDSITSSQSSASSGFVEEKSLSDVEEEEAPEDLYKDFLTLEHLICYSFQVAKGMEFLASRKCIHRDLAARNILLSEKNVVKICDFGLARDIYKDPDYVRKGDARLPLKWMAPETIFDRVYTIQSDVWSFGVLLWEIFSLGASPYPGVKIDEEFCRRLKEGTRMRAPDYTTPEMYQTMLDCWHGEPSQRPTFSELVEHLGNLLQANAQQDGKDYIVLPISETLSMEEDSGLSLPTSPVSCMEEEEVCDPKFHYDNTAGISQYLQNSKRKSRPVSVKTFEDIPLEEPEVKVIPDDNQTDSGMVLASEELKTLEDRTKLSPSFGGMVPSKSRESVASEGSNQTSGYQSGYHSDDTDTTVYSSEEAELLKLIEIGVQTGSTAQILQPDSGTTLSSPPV
# testMethodNotes: RTK in vitro enzymatic assay
# Type: biochemical
# testContext: 20 μM ATP
measureName: IC50

# query: IC50 of entry CC(C)NC(=O)C1CCC(n2c(=NC(=O)c3ccccc3)[nH]c3cc(C=CC(=O)NO)ccc32)CC1 (stereo not shown)
> 10 µM

###

# assayedTarget: UniProt:O60674
# Sequence (O60674 whole entry): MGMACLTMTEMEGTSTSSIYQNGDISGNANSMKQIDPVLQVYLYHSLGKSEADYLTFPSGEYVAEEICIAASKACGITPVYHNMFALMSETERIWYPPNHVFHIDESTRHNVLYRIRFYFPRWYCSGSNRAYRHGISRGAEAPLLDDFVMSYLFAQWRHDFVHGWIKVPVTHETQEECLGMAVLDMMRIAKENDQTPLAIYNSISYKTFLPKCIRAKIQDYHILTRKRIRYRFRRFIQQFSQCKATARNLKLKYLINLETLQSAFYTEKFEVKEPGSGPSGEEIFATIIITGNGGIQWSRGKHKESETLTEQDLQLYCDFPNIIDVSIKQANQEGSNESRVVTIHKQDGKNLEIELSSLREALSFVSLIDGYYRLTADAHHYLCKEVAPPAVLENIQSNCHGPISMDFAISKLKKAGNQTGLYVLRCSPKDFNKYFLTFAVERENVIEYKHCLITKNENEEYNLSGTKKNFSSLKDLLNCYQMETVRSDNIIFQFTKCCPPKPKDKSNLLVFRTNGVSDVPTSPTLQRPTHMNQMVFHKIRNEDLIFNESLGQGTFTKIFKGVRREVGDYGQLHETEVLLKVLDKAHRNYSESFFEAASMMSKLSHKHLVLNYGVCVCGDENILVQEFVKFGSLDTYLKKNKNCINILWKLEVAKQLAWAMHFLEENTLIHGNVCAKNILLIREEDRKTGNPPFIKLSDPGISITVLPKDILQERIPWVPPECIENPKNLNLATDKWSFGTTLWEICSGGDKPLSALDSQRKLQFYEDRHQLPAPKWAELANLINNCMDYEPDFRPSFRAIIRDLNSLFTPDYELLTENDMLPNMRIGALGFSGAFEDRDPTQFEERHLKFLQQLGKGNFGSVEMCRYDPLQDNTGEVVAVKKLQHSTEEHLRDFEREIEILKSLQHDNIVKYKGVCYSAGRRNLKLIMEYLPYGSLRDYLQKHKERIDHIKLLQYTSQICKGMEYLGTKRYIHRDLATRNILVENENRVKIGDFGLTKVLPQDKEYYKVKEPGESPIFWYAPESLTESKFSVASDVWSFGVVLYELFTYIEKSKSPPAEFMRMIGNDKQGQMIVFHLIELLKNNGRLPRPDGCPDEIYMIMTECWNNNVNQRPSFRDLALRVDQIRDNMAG
measureName: IC50

Item: CC(C)NC(=O)C1CCC(n2c(=NC(=O)c3ccccc3)[nH]c3cc(C=CC(=O)NO)ccc32)CC1 (stereo not shown) Test system: UniProt:O60674 Read-out: IC50 Value: ?
> 10 µM

###

# assayedTarget: ALK G1202R (Homo sapiens, UniProt Q9UM73, G1202R)
# Sequence (Q9UM73 19-1620 G1202R): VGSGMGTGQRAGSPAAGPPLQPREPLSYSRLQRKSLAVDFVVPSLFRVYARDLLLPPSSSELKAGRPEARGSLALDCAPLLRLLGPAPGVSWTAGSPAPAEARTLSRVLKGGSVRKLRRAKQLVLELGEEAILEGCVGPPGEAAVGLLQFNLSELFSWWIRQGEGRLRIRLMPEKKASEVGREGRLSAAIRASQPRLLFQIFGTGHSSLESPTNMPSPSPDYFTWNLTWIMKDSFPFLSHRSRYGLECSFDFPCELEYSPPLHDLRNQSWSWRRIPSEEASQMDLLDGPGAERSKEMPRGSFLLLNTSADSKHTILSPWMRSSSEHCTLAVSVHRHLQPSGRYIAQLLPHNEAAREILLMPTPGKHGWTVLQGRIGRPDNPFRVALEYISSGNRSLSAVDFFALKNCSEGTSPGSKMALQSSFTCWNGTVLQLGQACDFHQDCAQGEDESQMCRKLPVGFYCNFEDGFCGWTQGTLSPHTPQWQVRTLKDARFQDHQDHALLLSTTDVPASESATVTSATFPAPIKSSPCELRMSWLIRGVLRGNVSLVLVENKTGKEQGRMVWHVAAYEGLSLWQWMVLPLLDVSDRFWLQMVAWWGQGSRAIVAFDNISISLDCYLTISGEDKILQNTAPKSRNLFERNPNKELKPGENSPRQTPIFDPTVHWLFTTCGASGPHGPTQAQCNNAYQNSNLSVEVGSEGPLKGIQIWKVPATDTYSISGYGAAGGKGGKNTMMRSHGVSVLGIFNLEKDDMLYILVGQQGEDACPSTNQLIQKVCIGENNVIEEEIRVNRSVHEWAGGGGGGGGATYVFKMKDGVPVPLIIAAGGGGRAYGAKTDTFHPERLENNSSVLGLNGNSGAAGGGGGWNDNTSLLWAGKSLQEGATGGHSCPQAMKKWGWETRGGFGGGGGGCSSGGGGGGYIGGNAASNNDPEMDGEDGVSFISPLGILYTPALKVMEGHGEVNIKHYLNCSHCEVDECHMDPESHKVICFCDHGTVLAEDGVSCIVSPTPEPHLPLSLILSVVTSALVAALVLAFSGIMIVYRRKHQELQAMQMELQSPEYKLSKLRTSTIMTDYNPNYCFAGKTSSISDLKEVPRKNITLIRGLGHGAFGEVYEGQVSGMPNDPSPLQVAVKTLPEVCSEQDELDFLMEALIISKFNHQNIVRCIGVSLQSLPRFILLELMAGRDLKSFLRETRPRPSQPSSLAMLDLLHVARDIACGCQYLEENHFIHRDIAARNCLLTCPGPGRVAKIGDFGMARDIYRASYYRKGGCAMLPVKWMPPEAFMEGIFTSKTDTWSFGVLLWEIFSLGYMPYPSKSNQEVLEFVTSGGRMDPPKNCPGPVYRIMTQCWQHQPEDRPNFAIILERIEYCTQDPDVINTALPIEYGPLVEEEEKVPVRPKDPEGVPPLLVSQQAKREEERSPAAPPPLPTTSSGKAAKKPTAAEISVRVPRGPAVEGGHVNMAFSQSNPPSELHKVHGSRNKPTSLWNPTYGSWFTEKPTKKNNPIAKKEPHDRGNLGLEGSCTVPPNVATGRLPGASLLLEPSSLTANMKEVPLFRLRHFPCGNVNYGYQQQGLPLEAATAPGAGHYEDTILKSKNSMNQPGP
# testMethodNotes: ALK mutant in vitro enzymatic assay
# testContext: 20 μM ATP
measureName: IC50 (nM)
Use nM as the unit, but write only the number.

# query: IC50 of entry CC(C)NC(=O)C1CCC(n2c(=NC(=O)c3ccccc3)[nH]c3cc(C=CC(=O)NO)ccc32)CC1 (stereo not shown)
51

###

# Tested on: H2228
# testMethodNotes: SRB antiproliferation assay
# Type: cell-based
# testContext: Homo sapiens, NCI-H2228, 48 h, ALK-addicted cells, read-out: Antiproliferative activity (IC50) H2228
measureName: pIC50
In plain terms, pIC50 is the concentration in mol/L turned into minus its base-10 logarithm.

# query: pIC50 of entry `CC(C)NC(=O)[C@H]1CC[C@@H](n2/c(=N/C(=O)c3ccccc3)[nH]c3ccc(/C=C/C(=O)NO)cc32)CC1`
6.68

# query: pIC50 of entry CC(C)NC(=O)C1CCC(n2c(=NC(=O)c3ccccc3)[nH]c3cc(C=CC(=O)NO)ccc32)CC1 (stereo not shown)
6.36

# query: pIC50 of entry C[C@@H](Oc1cc(-c2cnn(C3CCNCC3)c2)cnc1N)c1c(Cl)ccc(F)c1Cl [Crizotinib, reference compound]
6.89

# query: pIC50 of entry CCCCc1nc2cc(/C=C/C(=O)NO)ccc2n1CCN(CC)CC [Pracinostat (2), Pracinostat, reference compound]
6.16

###

# assayedTarget: ALK C1156Y (Homo sapiens, UniProt Q9UM73, C1156Y)
# Sequence (Q9UM73 19-1620 C1156Y): as the sequence (Q9UM73 19-1620 G1202R) above, with C1138Y, R1184G counted along it
# testMethodNotes: ALK mutant in vitro enzymatic assay
# testContext: 20 μM ATP
measureName: IC50 (nM)
Use nM as the unit, but write only the number.

Item: CC(C)NC(=O)C1CCC(n2c(=NC(=O)c3ccccc3)[nH]c3cc(C=CC(=O)NO)ccc32)CC1 (stereo not shown) [Compound 3b] Test system: ALK C1156Y (Homo sapiens, UniProt Q9UM73, C1156Y) Read-out: IC50 Value: ?
9.7

###

# assayedTarget: HDAC8 (Homo sapiens)
# Sequence (Q9BY41 whole entry): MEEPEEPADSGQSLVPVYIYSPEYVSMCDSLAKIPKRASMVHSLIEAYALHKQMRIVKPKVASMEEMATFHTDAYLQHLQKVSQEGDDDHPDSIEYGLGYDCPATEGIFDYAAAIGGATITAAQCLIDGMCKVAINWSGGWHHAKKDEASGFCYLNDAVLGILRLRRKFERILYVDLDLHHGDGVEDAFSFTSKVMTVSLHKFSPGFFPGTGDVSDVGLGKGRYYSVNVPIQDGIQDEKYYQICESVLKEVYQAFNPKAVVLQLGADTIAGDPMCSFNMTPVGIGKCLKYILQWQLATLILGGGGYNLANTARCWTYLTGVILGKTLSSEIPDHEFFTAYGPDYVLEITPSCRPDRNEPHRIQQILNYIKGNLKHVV
# testMethodNotes: HDAC inhibition assay (fluorogenic diacylpeptide, Reaction Biology)
# testContext: tested once, ten-dose starting at 30 µM
One threshold, 3000 nM, splits the recorded IC50 values: lower ones are YES, equal or higher ones are NO.

Criterion: IC50 strictly below 3000 nM. Is it met by CC(C)NC(=O)C1CCC(n2c(=NC(=O)c3ccccc3)[nH]c3cc(C=CC(=O)NO)ccc32)CC1 (stereo not drawn) ?
YES

Criterion: IC50 strictly below 3000 nM. Is it met by `CC(C)NC(=O)CCCn1/c(=N/C(=O)c2cc(F)cc(F)c2)[nH]c2cc(/C=C/C(=O)NO)ccc21` ?
NO

Criterion: IC50 strictly below 3000 nM. Is it met by `CC(C)NC(=O)[C@H]1CC[C@@H](n2/c(=N/C(=O)c3ccccc3)[nH]c3cc(NC(=O)CCCCCCC(=O)NO)ccc32)CC1` ?
YES

Criterion: IC50 strictly below 3000 nM. Is it met by `CCCC(=O)/N=c1\[nH]c2cc(/C=C/C(=O)NO)ccc2n1CCCC(=O)NC(C)C` ?
YES

Criterion: IC50 strictly below 3000 nM. Is it met by `CC(C)NC(=O)[C@H]1CC[C@@H](n2/c(=N/C(=O)c3ccccc3)[nH]c3ccc(/C=C/C(=O)NO)cc32)CC1` ?
YES

###

# assayedTarget: IGF1R (Homo sapiens, UniProt P08069)
# Construct: purchased Reaction Biology Corporation
# testMethodNotes: RTK in vitro enzymatic assay
# Type: biochemical
# testContext: 20 μM ATP
measureName: pIC50
In plain terms, pIC50 is the concentration in mol/L turned into minus its base-10 logarithm.

Item: CC(C)NC(=O)C1CCC(n2c(=NC(=O)c3ccccc3)[nH]c3cc(C=CC(=O)NO)ccc32)CC1 (stereo not shown) Test system: IGF1R (Homo sapiens, UniProt P08069) Read-out: pIC50 Value: ?
5.32

###

# assayedTarget: CYP1A2 (Homo sapiens)
# Construct: purchased Reaction Biology Corporation; host or cells: CYP cDNA baculovirus expression systems
# testMethodNotes: CYP450 inhibition assay
# Type: in vitro ADME
# testContext: human recombinant enzyme
measureName: pIC50
In plain terms, pIC50 is the concentration in mol/L turned into minus its base-10 logarithm.

# query: pIC50 of entry CC(=O)N1CCN(c2ccc(OCC3COC(Cn4ccnc4)(c4ccc(Cl)cc4Cl)O3)cc2)CC1 (stereo not shown) [Ketoconazole, reference compound]
6.23

###

# assayedTarget: CYP2D6 (Homo sapiens)
# testMethodNotes: CYP450 inhibition assay
# testContext: human recombinant enzyme
pIC50: −log10 of the molar value.
measureName: pIC50

# query: pIC50 of entry CC(C)NC(=O)C1CCC(n2c(=NC(=O)c3ccccc3)[nH]c3cc(C=CC(=O)NO)ccc32)CC1 (stereo not shown)
< 5.00

###

# assayedTarget: CYP1A2 (Homo sapiens, UniProt P05177)
# Construct: purchased Reaction Biology Corporation; host or cells: CYP cDNA baculovirus expression systems
# Sequence (P05177 whole entry): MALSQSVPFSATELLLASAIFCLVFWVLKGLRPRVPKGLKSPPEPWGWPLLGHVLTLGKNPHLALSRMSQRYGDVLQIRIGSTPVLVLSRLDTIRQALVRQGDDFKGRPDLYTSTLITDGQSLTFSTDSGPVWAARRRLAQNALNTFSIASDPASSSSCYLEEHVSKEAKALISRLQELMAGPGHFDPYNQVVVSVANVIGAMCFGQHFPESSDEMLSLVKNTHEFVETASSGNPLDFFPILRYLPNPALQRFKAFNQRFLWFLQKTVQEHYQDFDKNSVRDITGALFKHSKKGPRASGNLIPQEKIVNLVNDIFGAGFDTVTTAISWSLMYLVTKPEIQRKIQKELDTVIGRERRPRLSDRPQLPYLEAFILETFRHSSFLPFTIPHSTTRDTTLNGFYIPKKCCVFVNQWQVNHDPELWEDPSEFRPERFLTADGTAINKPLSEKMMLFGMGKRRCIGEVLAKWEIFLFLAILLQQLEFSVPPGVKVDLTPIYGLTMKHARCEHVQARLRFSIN
# testMethodNotes: CYP450 inhibition assay
# Assay type: in vitro ADME
# testContext: human recombinant enzyme; read-out: IC50 CYP1A2
measureName: pIC50
In plain terms, pIC50 is the concentration in mol/L turned into minus its base-10 logarithm.

# query: pIC50 of entry CC(C)NC(=O)C1CCC(n2c(=NC(=O)c3ccccc3)[nH]c3cc(C=CC(=O)NO)ccc32)CC1 (stereo not shown)
4.90

###

measureName: IC50

Item: CC(C)NC(=O)C1CCC(n2c(=NC(=O)c3ccccc3)[nH]c3cc(C=CC(=O)NO)ccc32)CC1 (stereo not shown) Test system: EGFR (Homo sapiens) Read-out: IC50 Value: ?
> 10 µM
